Target: MAP kinase-activated protein kinase 5 (Homo sapiens)
Sequence (whole entry): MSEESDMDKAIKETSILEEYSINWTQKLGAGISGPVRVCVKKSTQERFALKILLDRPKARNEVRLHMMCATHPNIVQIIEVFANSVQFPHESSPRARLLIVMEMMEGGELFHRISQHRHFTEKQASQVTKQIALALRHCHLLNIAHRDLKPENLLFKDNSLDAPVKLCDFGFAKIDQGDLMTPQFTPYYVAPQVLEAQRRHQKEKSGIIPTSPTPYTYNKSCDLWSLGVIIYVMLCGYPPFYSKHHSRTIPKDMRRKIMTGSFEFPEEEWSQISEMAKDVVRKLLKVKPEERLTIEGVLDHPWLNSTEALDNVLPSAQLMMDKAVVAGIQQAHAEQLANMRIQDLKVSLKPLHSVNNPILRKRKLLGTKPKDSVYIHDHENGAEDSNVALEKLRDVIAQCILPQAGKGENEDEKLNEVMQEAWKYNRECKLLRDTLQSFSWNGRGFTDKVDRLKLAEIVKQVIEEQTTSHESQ
Details: at 1 µM
Attribute: residual activity
MEASURED PROPERTY: residual activity (%)

INSERT INTO measurements (molecule, assayed_target, measured_property, numeric_value) VALUES
  ('O=C(NC(NC(=S)Nc1ccc(F)c([N+](=O)[O-])c1)C(Cl)(Cl)Cl)C(c1ccccc1)c1ccccc1 (stereo unspecified)', 'MAP kinase-activated protein kinase 5 (Homo sapiens)', 'residual activity', 87),
  ('O=C(O)/C=C/c1cc(Br)c(Br)c(Br)c1Br', 'MAP kinase-activated protein kinase 5 (Homo sapiens)', 'residual activity', 83),
  ('O=C1NC(=O)C(c2c[nH]c3ccccc23)=C1c1c[nH]c2ccccc12', 'MAP kinase-activated protein kinase 5 (Homo sapiens)', 'residual activity', 98),
  ('CC(C)[C@H](CO)Nc1nc(Nc2cc(N)cc(Cl)c2)c2ncn(C(C)C)c2n1', 'MAP kinase-activated protein kinase 5 (Homo sapiens)', 'residual activity', 92),
  ('CC(C)(C)n1nc(Cc2cccc3ccccc23)c2c(N)ncnc21', 'MAP kinase-activated protein kinase 5 (Homo sapiens)', 'residual activity', 75),
  ('c1ccc(-c2cnc(Nc3ccc(OCCN4CCCC4)cc3)s2)cc1', 'MAP kinase-activated protein kinase 5 (Homo sapiens)', 'residual activity', 120),
  ('N#Cc1c(NC(=O)c2cccc3ccccc23)sc2c1CCCC2', 'MAP kinase-activated protein kinase 5 (Homo sapiens)', 'residual activity', 87),
  ('O=c1cc(N2CCOCC2)oc2c1ccc1ccccc12', 'MAP kinase-activated protein kinase 5 (Homo sapiens)', 'residual activity', 28),
  ('Nc1ncnc2c1cnn2-c1ccccc1', 'MAP kinase-activated protein kinase 5 (Homo sapiens)', 'residual activity', 94),
  ('Nc1nccc(-c2c(-c3ccc(F)cc3)ncn2C2CCNCC2)n1', 'MAP kinase-activated protein kinase 5 (Homo sapiens)', 'residual activity', 118),
  ('COc1cc2c(cc1OC)-c1n[nH]c(Nc3cccc(F)c3)c1C2', 'MAP kinase-activated protein kinase 5 (Homo sapiens)', 'residual activity', 47),
  ('COc1cc2nccc(Oc3ccc(NC(=O)Nc4cc(C)on4)c(Cl)c3)c2cc1OC', 'MAP kinase-activated protein kinase 5 (Homo sapiens)', 'residual activity', 99),
  ('CCCCc1c(-c2ccc(OC)cc2)[nH]c2nccnc12', 'MAP kinase-activated protein kinase 5 (Homo sapiens)', 'residual activity', 73),
  ('NCCNc1ncc(C(N)=O)c(Nc2cccc(C(F)(F)F)c2)n1', 'MAP kinase-activated protein kinase 5 (Homo sapiens)', 'residual activity', 42),
  ('Nc1nc(Nc2ccc(S(N)(=O)=O)cc2)nn1C(=O)c1c(F)cccc1F', 'MAP kinase-activated protein kinase 5 (Homo sapiens)', 'residual activity', 101),
  ('COc1ccc(-c2cnc3c(-c4ccsc4)cnn3c2)cc1', 'MAP kinase-activated protein kinase 5 (Homo sapiens)', 'residual activity', 93),
  ('O=C1Cc2c([nH]c3ccc([N+](=O)[O-])cc23)-c2ccccc2N1', 'MAP kinase-activated protein kinase 5 (Homo sapiens)', 'residual activity', 80),
  ('CCCC(=O)Oc1ccc2[nH]c(C(=O)c3cc4ccccc4[nH]3)cc2c1', 'MAP kinase-activated protein kinase 5 (Homo sapiens)', 'residual activity', 72),
  ('NC(=O)Nc1sc(-c2ccc(F)cc2)cc1C(N)=O', 'MAP kinase-activated protein kinase 5 (Homo sapiens)', 'residual activity', 96),
  ('Cc1cc(C)c(/C=C2\C(=O)Nc3ccccc32)[nH]1', 'MAP kinase-activated protein kinase 5 (Homo sapiens)', 'residual activity', 78),
  ('CC(C)N(CCC(=O)c1ccc2ccccc2c1)Cc1ccccc1', 'MAP kinase-activated protein kinase 5 (Homo sapiens)', 'residual activity', 82);

* * *

Overview of reported residual activity across a group of molecules:
biological target: Dual specificity protein kinase CLK2 (Homo sapiens); conditions: at 10 µM
MEASURED PROPERTY: residual activity (%)

INSERT INTO results (mol_smiles, numeric_value) VALUES
  ('CN(C)S(=O)(=O)c1ccc2c(c1)/C(=C/c1cc3c([nH]1)CCCC3)C(=O)N2', 71),
  ('CCOC(=O)c1c(C)[nH]c(/C=C2\C(=O)Nc3ccccc32)c1C', 95),
  ('O=C(Nc1ccc(Cl)cc1)c1ccccc1NCc1ccncc1', 99),
  ('Nc1ncnc2c1c(-c1ccc(Oc3ccccc3)cc1)cn2C1CCCC1', 88),
  ('O=C1NC(=O)C(c2c[nH]c3ccccc23)=C1c1c[nH]c2ccccc12', 5);

* * *

Biological target: Mitogen-activated protein kinase kinase kinase 7 (Homo sapiens) (UniProt O43318)
Sequence (whole entry): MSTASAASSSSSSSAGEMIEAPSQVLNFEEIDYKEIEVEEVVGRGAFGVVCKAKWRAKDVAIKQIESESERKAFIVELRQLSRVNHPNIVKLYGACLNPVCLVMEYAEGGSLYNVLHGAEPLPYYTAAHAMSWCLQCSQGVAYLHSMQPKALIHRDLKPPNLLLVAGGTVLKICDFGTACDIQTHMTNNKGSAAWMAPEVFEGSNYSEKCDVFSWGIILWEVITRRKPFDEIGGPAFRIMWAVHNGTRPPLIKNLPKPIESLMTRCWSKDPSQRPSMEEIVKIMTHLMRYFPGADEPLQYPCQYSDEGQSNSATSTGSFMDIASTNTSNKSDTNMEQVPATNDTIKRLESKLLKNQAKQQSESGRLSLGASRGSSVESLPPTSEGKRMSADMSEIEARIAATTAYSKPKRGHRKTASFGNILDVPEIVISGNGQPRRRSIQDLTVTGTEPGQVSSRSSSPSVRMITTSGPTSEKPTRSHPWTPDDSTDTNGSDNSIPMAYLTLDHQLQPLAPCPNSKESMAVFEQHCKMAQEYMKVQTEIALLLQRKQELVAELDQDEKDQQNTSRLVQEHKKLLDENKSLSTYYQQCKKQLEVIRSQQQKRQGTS
Details: at 1 µM
Label Condition met when residual activity is at or above 90%; otherwise label Condition not met.

INSERT INTO results (compound, assayed_target, class_name) VALUES
  ('O=C1NC(=O)c2c1c1c3ccccc3[nH]c1n1cncc21', 'Mitogen-activated protein kinase kinase kinase 7 (Homo sapiens) (UniProt O43318)', 'Condition not met'),
  ('Cc1cc(C)c(/C=C2\C(=O)Nc3ccccc32)[nH]1', 'Mitogen-activated protein kinase kinase kinase 7 (Homo sapiens) (UniProt O43318)', 'Condition not met'),
  ('O=C(CCCc1ccc(-c2ccccc2F)cc1)Nc1ccc(O)cc1', 'Mitogen-activated protein kinase kinase kinase 7 (Homo sapiens) (UniProt O43318)', 'Condition met'),
  ('COc1ccc2c(c1)c(C1=C(c3c[nH]c4ccccc34)C(=O)NC1=O)cn2CCCN(C)C', 'Mitogen-activated protein kinase kinase kinase 7 (Homo sapiens) (UniProt O43318)', 'Condition not met'),
  ('CC(C)(C)n1nc(Cc2cccc3ccccc23)c2c(N)ncnc21', 'Mitogen-activated protein kinase kinase kinase 7 (Homo sapiens) (UniProt O43318)', 'Condition not met'),
  ('O=C1NC(=O)C(c2cn(CCCO)c3ncccc23)=C1c1cnccn1', 'Mitogen-activated protein kinase kinase kinase 7 (Homo sapiens) (UniProt O43318)', 'Condition met'),
  ('CCCC(=O)Oc1ccc2[nH]c(C(=O)c3cc4ccccc4[nH]3)cc2c1', 'Mitogen-activated protein kinase kinase kinase 7 (Homo sapiens) (UniProt O43318)', 'Condition not met'),
  ('COc1cc2nccc(Oc3ccc(NC(=S)NC(=O)c4ccccc4C)cc3)c2cc1OC', 'Mitogen-activated protein kinase kinase kinase 7 (Homo sapiens) (UniProt O43318)', 'Condition not met'),
  ('CCN(CC)CCNC(=O)c1c(C)[nH]c(/C=C2\C(=O)Nc3ccc(Cl)cc32)c1C', 'Mitogen-activated protein kinase kinase kinase 7 (Homo sapiens) (UniProt O43318)', 'Condition not met'),
  ('O=C(c1cc2cc(O)ccc2[nH]1)c1cc2cc(O)ccc2[nH]1', 'Mitogen-activated protein kinase kinase kinase 7 (Homo sapiens) (UniProt O43318)', 'Condition not met'),
  ('CN([C@@H](Cc1ccc(OS(=O)(=O)c2cccc3cnccc23)cc1)C(=O)N1CCN(c2ccccc2)CC1)S(=O)(=O)c1cccc2cnccc12', 'Mitogen-activated protein kinase kinase kinase 7 (Homo sapiens) (UniProt O43318)', 'Condition met'),
  ('CC(C)N(CCC(=O)c1ccc2ccccc2c1)Cc1ccccc1', 'Mitogen-activated protein kinase kinase kinase 7 (Homo sapiens) (UniProt O43318)', 'Condition not met'),
  ('CN(C)S(=O)(=O)c1ccc2c(c1)/C(=C/c1cc3c([nH]1)CCCC3)C(=O)N2', 'Mitogen-activated protein kinase kinase kinase 7 (Homo sapiens) (UniProt O43318)', 'Condition met'),
  ('O=C1Nc2ccc(Cl)cc2/C1=C/c1cc(Cl)c(O)c(Cl)c1', 'Mitogen-activated protein kinase kinase kinase 7 (Homo sapiens) (UniProt O43318)', 'Condition not met'),
  ('O=C1C(Cl)=C(N2C(=O)CCC2=O)C(=O)c2ccccc21', 'Mitogen-activated protein kinase kinase kinase 7 (Homo sapiens) (UniProt O43318)', 'Condition met'),
  ('CSc1nc(-c2ccc(F)cc2)c(-c2ccnc(NC(C)c3ccccc3)c2)[nH]1 (configuration not stated)', 'Mitogen-activated protein kinase kinase kinase 7 (Homo sapiens) (UniProt O43318)', 'Condition met'),
  ('CC(C)[C@H](CO)Nc1nc(Nc2cc(N)cc(Cl)c2)c2ncn(C(C)C)c2n1', 'Mitogen-activated protein kinase kinase kinase 7 (Homo sapiens) (UniProt O43318)', 'Condition not met'),
  ('O=c1cc(N2CCOCC2)oc2c1ccc1ccccc12', 'Mitogen-activated protein kinase kinase kinase 7 (Homo sapiens) (UniProt O43318)', 'Condition met'),
  ('O=C(c1ccccc1)c1ccc(N2CCOCC2)cc1O', 'Mitogen-activated protein kinase kinase kinase 7 (Homo sapiens) (UniProt O43318)', 'Condition met'),
  ('COc1ccc(Cl)cc1NC(=O)Nc1cc(C)nc2ccccc12', 'Mitogen-activated protein kinase kinase kinase 7 (Homo sapiens) (UniProt O43318)', 'Condition met'),
  ('O=c1cc(N2CCNCC2)oc2c(-c3ccccc3)cccc12', 'Mitogen-activated protein kinase kinase kinase 7 (Homo sapiens) (UniProt O43318)', 'Condition met');
